molecular target: Opiate Receptor, μ (OP3, MOP) (Homo sapiens, UniProt P35372); experiment: Radioligand competition binding, Opiate Receptor, μ (OP3, MOP), [3H]-diprenorphine, CHO-K1 cells
Sequence (P35372 whole entry): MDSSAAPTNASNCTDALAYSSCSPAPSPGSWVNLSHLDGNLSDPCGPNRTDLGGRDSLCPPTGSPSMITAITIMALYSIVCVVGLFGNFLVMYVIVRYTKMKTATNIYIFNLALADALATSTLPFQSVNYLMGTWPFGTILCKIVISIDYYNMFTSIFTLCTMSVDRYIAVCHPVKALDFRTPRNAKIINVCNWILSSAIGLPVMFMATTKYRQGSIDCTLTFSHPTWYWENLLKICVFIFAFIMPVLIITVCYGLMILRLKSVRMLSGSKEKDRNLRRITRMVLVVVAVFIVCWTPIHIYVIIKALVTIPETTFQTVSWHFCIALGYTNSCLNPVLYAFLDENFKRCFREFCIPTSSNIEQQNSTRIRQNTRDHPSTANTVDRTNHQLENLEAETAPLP
readout_kind: nH
Number, no unit, nothing else.

Solved cases (3 shown):
compound="C=CCN1C[C@H](C)N([C@H](c2ccc(C(=O)N(CC)CC)cc2)c2cccc(O)c2)C[C@H]1C [(+) BW373U86, reference compound]" numeric_readout=0.83
compound="CCN(CC)C(=O)c1ccc(C(c2cccc(O)c2)N2CCN(Cc3ccccc3)CC2)cc1 (stereo not shown) [N-benzyl-deallyl-demethyl-BW373U86]" numeric_readout=0.90
compound="C=CCN1CCN(C(c2ccc(C(=O)N(CC)CC)cc2)c2cccc(O)c2)CC1 (stereo not shown) [demethyl-BW373U86]" numeric_readout=1.02

The recorded nH for Br.Br.C=CCN1CC(C)N(C(c2ccc(C(=O)N(CC)CC)cc2)c2cccc(O)c2)CC1C (racemic) [(+/−) BW373U86 dihydrobromide, reference compound] is 0.92

====

molecular target: Opiate Receptor, kappa (OP2, KOP) (Homo sapiens, UniProt P41145); construct: expressed in transfected cells; host or cells: HEK-293 cells, membrane preparation; assay: biochemical; assay type: binding
Sequence (P41145 whole entry): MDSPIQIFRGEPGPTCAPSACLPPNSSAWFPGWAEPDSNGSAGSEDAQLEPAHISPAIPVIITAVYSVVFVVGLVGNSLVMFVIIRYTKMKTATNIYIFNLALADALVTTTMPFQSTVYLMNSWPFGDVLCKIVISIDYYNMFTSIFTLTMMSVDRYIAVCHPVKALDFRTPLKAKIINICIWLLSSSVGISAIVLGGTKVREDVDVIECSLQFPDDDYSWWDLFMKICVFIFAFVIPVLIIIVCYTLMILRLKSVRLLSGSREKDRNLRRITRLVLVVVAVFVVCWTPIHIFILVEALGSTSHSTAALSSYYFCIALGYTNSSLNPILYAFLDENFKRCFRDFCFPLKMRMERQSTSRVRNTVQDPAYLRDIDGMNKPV
In this section we review reported nH values for a set of compounds.
Number, no unit, nothing else.

Solved cases (3 shown):
compound="C=CCN1C[C@H](C)N([C@H](c2ccc(C(=O)N(CC)CC)cc2)c2cccc(O)c2)C[C@H]1C [(+) BW373U86, reference compound]" measured_target="Opiate Receptor, kappa (OP2, KOP) (Homo sapiens, UniProt P41145)" numeric_readout=0.78
compound="CCN(CC)C(=O)c1ccc(C(c2cccc(O)c2)N2CCN(Cc3ccccc3)CC2)cc1 (stereo not shown)" measured_target="Opiate Receptor, kappa (OP2, KOP) (Homo sapiens, UniProt P41145)" numeric_readout=0.95
compound="Br.Br.C=CCN1CC(C)N(C(c2ccc(C(=O)N(CC)CC)cc2)c2cccc(O)c2)CC1C (racemic) [(+/−) BW373U86 dihydrobromide, reference compound]" measured_target="Opiate Receptor, kappa (OP2, KOP) (Homo sapiens, UniProt P41145)" numeric_readout=0.92

The recorded nH for C=CCN1CCN(C(c2ccc(C(=O)N(CC)CC)cc2)c2cccc(O)c2)CC1 (stereo not shown) is 0.87
